Here the recorded % inhibition PDK1(h) is given for each entry.
TEST_TARGET: PDK1(h) (Homo sapiens)
Construct: purchased Caliper Life Sciences
Sequence (O15530 whole entry): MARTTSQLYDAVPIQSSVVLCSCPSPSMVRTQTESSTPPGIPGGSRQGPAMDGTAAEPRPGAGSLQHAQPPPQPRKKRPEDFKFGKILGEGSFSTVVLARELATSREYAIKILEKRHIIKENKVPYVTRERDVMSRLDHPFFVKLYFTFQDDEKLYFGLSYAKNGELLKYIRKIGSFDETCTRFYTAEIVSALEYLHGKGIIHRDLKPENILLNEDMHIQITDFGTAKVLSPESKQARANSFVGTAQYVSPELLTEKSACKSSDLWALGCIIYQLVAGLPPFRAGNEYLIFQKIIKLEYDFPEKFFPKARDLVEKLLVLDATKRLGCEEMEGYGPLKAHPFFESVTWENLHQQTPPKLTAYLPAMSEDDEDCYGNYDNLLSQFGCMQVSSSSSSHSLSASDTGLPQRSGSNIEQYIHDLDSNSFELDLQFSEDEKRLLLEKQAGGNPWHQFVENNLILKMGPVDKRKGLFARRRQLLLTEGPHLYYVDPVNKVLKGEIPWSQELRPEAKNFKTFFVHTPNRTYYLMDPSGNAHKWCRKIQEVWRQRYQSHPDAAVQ
TEST_DETAILS: Other kinases, single-concentration inhibition (Table 3)
Format: biochemical
CONDITION_CONTEXT: 1 μM
QUANTITY_KIND: % inhibition PDK1(h) (%)

1) NC(=O)[C@H]1[C@H]2C[C@H]3[C@H]1Nc1nc(ncc1F)Nc1cccc(c1)NC(=O)CS[C@@H]3C2
86
2) NC(=O)[C@H]1[C@H]2C[C@H]3[C@H]1Nc1nc(ncc1F)Nc1cccc(c1)C(=O)CS[C@@H]3C2
98
3) N#Cc1ccc2cc1NC(=O)CS[C@@H]1C[C@@H]3C[C@H]1[C@@H](Nc1nc(ncc1F)N2)[C@H]3C(N)=O
88
4) C=C[C@@H]1C[C@@H]2/C=C/COc3cccc(c3)Nc3ncc(F)c(n3)N[C@H]2[C@H]1C(N)=O (single isomer, unassigned)
102
5) NC(=O)[C@H]1[C@H]2C[C@H]3[C@H]1Nc1nc(ncc1F)Nc1cccc(c1)CSS[C@@H]3C2
96
6) CN1CCN(c2ccc3cc2NC(=O)CS[C@@H]2C[C@@H]4C[C@H]2[C@@H](Nc2nc(ncc2F)N3)[C@H]4C(N)=O)CC1
108
7) CC[C@@H]1C[C@@H]2CCCOc3cccc(c3)Nc3ncc(F)c(n3)N[C@H]2[C@H]1C(N)=O (single isomer, unassigned)
92

The values you see were collected from patent US8815872B2.
